- Read-out: Interleukin-8 (IL8), CXCL8 (gene 3576)
- assay-info: BSK_SAg_IL8: BioMAP Diversity Plus: SAg Assay for Interleukin-8 (IL8) Biomarker Activity (AID 2283094)
- measurement-setup: primary human HUVEC with PBMC; actives raise or lower the signal
Calls of active or inactive are those of the source. Rule for the calls: active = hit-call score of the fitted dose curve at least 0.9, where 1 is the maximum; inactive = score below 0.9.
Classes used: active, inactive

- compound: "CCCCC1C(=O)N(c2ccccc2)N(c2ccccc2)C1=O"
  group: "inactive"
- compound: "CC(C)C(=O)OCCc1ccccc1"
  group: "inactive"
- compound: "CC(c1cc(C(C)(C)C)cc(C(C)(C)C)c1O)c1cc(C(C)(C)C)cc(C(C)(C)C)c1O"
  group: "inactive"
- compound: "CC/C=C\\C/C=C\\C/C=C\\CCCCCCCC(=O)OC"
  group: "active"
- compound: "CCCCCCCCC(CO)CCCCCC (stereo not drawn)"
  group: "inactive"
- compound: "CCCCCCOC(=O)CCCCC(=O)OCCCCCC"
  group: "inactive"
- compound: "CC1(C)CC(O)CC(C)(C)N1[O]"
  group: "inactive"
- compound: "O=C(Oc1ccccc1)c1ccccc1C(=O)Oc1ccccc1"
  group: "inactive"
- compound: "CC=C(C)C(C)=O"
  group: "inactive"
- compound: "CC/C=C\\CCOC(=O)c1ccccc1O"
  group: "inactive"
- compound: "CCc1cccc(C)c1N(C(=O)CS(=O)(=O)O)C(C)COC (stereo not drawn)"
  group: "inactive"
- compound: "O=C1CCCCCCCCCCCN1"
  group: "inactive"
- compound: "Oc1ccc(/C=C/c2cc(O)cc(O)c2)cc1"
  group: "inactive"

---

- Read-out: Intercellular Adhesion Molecule 1 (ICAM1), ICAM1 (gene 3383)
- assay-info: BSK_3C_ICAM1: BioMAP Diversity Plus: 3C Assay for Intercellular Adhesion Molecule 1 (ICAM1) Biomarker Activity (AID 2283003)
- measurement-setup: primary human endothelial cells (HUVEC); actives raise or lower the signal
Activity calls are given as the source filed them. How the source made its calls: active means hit-call score of the fitted dose curve at least 0.9, where 1 is the maximum; inactive means score below 0.9.
Outcomes: active, inactive

- molecule: "CC=C(C)C=CC=C(C)C"
  group: "inactive"
- molecule: "CCOC(=O)/C=C\\C(=O)OCC"
  group: "inactive"
- molecule: "CCCCC1C(=O)N(c2ccccc2)N(c2ccccc2)C1=O"
  group: "inactive"
- molecule: "O=C1CCCCCCCCCCC1"
  group: "inactive"
- molecule: "C=CC(=O)OCC(C)OCC(C)OCC(C)OC(=O)C=C (stereo not drawn)"
  group: "active"
- molecule: "CCCC(C)C(=O)OCC (stereo not drawn)"
  group: "inactive"
- molecule: "CC/C=C\\CCOC(=O)c1ccccc1O"
  group: "active"
- molecule: "Oc1ccc(/C=C/c2cc(O)cc(O)c2)cc1"
  group: "inactive"

---

- Read-out: Vascular cell adhesion molecule 1 (VCAM1), VCAM1 (gene 7412)
- assay-info: BSK_hDFCGF_VCAM1: BioMAP Diversity Plus: hDFCGF Assay for Vascular cell adhesion molecule 1 (VCAM1) Biomarker Activity (AID 2283065)
- measurement-setup: primary human foreskin fibroblasts; actives raise or lower the signal
- Description: BSK_hDFCGF is a cell-based, multiplexed-readout assay that uses foreskin fibroblast, a human skin primary cell, with measurements taken at 24 hours after chemical dosing in a 96-well plate.BSK_hDFCGF_VCAM1 is an assay component measured in the BSK_hDFCGF assay. It measures VCAM-1 antibody related to regulation of gene expression using ELISA technology.Data from the assay component BSK_hDFCGF_VCAM1 was analyzed into 1 assay endpoint. […]
Active and inactive are the calls of the source. Rule for the calls: active = hit-call score of the fitted dose curve at least 0.9, where 1 is the maximum; inactive = score below 0.9.
Outcomes: Yes = active, No = inactive

- molecule: "O=C(Cl)c1c(Cl)c(Cl)c(C(=O)Cl)c(Cl)c1Cl"
  group: "No"
- molecule: "Clc1cc(Cl)c(Cl)c(Cl)c1Cl"
  group: "No"
- molecule: "C=CC(=O)OCC(C)OCC(C)OCC(C)OC(=O)C=C (stereo not drawn)"
  group: "Yes"
- molecule: "CC(C)CCCCCOC(=O)CS"
  group: "No"
- molecule: "C=CCCCCCCCCC=O"
  group: "No"
- molecule: "Oc1ccc(/C=C/c2cc(O)cc(O)c2)cc1"
  group: "No"
- molecule: "CCCCCCCCCCCC(=O)N(C)CC(=O)O"
  group: "No"
- molecule: "O=C1CCCCCCCCCCC1"
  group: "No"
- molecule: "Cc1c(O)cccc1O"
  group: "No"
- molecule: "CCCCCCOC(=O)CCCCC(=O)OCCCCCC"
  group: "No"
- molecule: "C1CNCCN1"
  group: "No"
- molecule: "CC(C)c1cccc(C(C)C)c1N"
  group: "No"
- molecule: "O=C(Oc1ccccc1)c1ccccc1C(=O)Oc1ccccc1"
  group: "No"
- molecule: "c1ccc2c(c1)[nH]c1ccccc12"
  group: "No"
- molecule: "CC/C=C\\C/C=C\\C/C=C\\CCCCCCCC(=O)OC"
  group: "Yes"
- molecule: "CCOC(=O)C1=NOC(c2ccccc2)(c2ccccc2)C1"
  group: "No"
- molecule: "C=CC(=O)NCOCCCC"
  group: "No"
- molecule: "CCCCC1C(=O)N(c2ccccc2)N(c2ccccc2)C1=O"
  group: "No"
